# experiment: Tmax in male Balb/c mouse at 30 mg/kg, po by LC-MS/MS analysis
# Assay type: ADME, organism-based
# assay setup: in vivo
quantity measured: Tmax
Write the numeric value and follow it with the unit.

The measured Tmax associated with CCCc1nn(C)c2c(Nc3ccc(O)cc3)nc(-c3ccc([N+](=O)[O-])o3)nc12 reads 30 min

----------
# experiment: Cytotoxicity in human HepG2 cells incubated for 24 hrs by MTT assay
# Type: toxicity, cell-based
Answer each item with its documented IC50 at 24 h.

The measured IC50 at 24 h associated with CCCc1nn(C)c2c(N3CCC(c4ccccc4)CC3)nc(-c3ccc([N+](=O)[O-])o3)nc12 reads > 50 µg/mL

The measured IC50 at 24 h associated with CCCc1nn(C)c2c(NCc3cccnc3)nc(-c3ccc([N+](=O)[O-])o3)nc12 reads > 50 µg/mL

The measured IC50 at 24 h associated with CCCc1nn(C)c2c(NCCN3CCOCC3)nc(-c3ccc([N+](=O)[O-])o3)nc12 reads > 50 µg/mL

The measured IC50 at 24 h associated with CCCc1nn(C)c2c(Nc3ccccc3O)nc(-c3ccc([N+](=O)[O-])o3)nc12 reads > 50 µg/mL

The measured IC50 at 24 h associated with CCCc1nn(C)c2c(N3CCC(=O)CC3)nc(-c3ccc([N+](=O)[O-])o3)nc12 reads > 50 µg/mL

The measured IC50 at 24 h associated with CCCc1nn(C)c2c(N3CCC(CCO)CC3)nc(-c3ccc([N+](=O)[O-])o3)nc12 reads > 50 µg/mL

The measured IC50 at 24 h associated with CCCc1nn(C)c2c(Nc3ccc(O)cc3)nc(-c3ccc([N+](=O)[O-])o3)nc12 reads > 50 µg/mL

The measured IC50 at 24 h associated with CCCc1nn(C)c2c(NCCCCCO)nc(-c3ccc([N+](=O)[O-])o3)nc12 reads 38.1 µg/mL

The measured IC50 at 24 h associated with CCCc1nn(C)c2c(N3CCCCC3)nc(-c3ccc([N+](=O)[O-])o3)nc12 reads > 50 µg/mL
